Reference source for all entries: the supplement of paper PMC5908809

- Test system: SNK-6 (IL-2 2.5 ng/mL)
- assay explanation: drug sensitivity score (DSS) (DSS units); higher = more sensitive; extreme values may be limits of the assay
- condition summary: 72 h
Recorded measurements of drug sensitivity score, one per entry

| molecule | drug sensitivity score |
| --- | --- |
| O=P1(N(CCCl)CCCl)NCCCO1 (stereo not given) [Cyclophosphamide] (max concentration tested 40000 nM) | 0 |
| CO[C@H]1C[C@@H]2CC[C@@H](C)[C@@](O)(O2)C(=O)C(=O)N2CCCC[C@H]2C(=O)O[C@H]([C@H](C)C[C@@H]2CC[C@@H](OP(C)(C)=O)[C@H](OC)C2)CC(=O)[C@H](C)/C=C(\C)[C@@H](O)[C@@H](OC)C(=O)[C@H](C)C[C@H](C)/C=C/C=C/C=C/1C [Ridaforolimus] (max concentration tested 100 nM) | 15.6 |
| CC(C)[C@H]1C(=O)N[C@@H](CCCNC(=N)N)C(=O)NCC(=O)N[C@@H](CC(=O)O)C(=O)N[C@H](Cc2ccccc2)C(=O)N1C [Cilengitide] (max concentration tested 10000 nM) | 0 |
| CC(C)C[C@H](NC(=O)[C@H](Cc1ccccc1)NC(=O)c1cnccn1)B(O)O [Bortezomib] (max concentration tested 1000 nM) | 32.6 |
| CN(C)CCOc1ccc(/C(=C(/CCCl)c2ccccc2)c2ccccc2)cc1 [Toremifene] (max concentration tested 10000 nM) | 6.85 |
| CCCCC(=O)OCC(=O)[C@]1(O)Cc2c(O)c3c(c(O)c2[C@@H](O[C@H]2C[C@H](NC(=O)C(F)(F)F)[C@H](O)[C@H](C)O2)C1)C(=O)c1c(OC)cccc1C3=O [Valrubicin] (max concentration tested 5000 nM) | 18.6 |
| COc1cccc2c1C(=O)c1c(O)c3c(c(O)c1C2=O)C[C@@](O)(C(=O)CO)C[C@@H]3O[C@H]1C[C@H](N)[C@H](O)[C@H](C)O1 [Doxorubicin] (max concentration tested 1000 nM) | 15.5 |
| C=CCNC1=C2C[C@@H](C)C[C@H](OC)[C@H](O)[C@@H](C)/C=C(\C)[C@H](OC(N)=O)[C@@H](OC)/C=C\C=C(/C)C(=O)NC(=CC1=O)C2=O [Tanespimycin] (max concentration tested 10000 nM) | 21.6 |
| Nc1ncn([C@H]2C[C@H](O)[C@@H](CO)O2)c(=O)n1 [Decitabine] (max concentration tested 10000 nM) | 23.5 |
| N#CC[C@H](C1CCCC1)n1cc(-c2ncnc3[nH]ccc23)cn1 [Ruxolitinib] (max concentration tested 10000 nM) | 25.9 |
